tested on: OVCAR-8 ovarian; experiment: NCI tumour cell line growth inhibition, 48 h; in the data active = GI50 below about 0.43 µM; inactive = the rest
Select the matching outcome among Y = active, N = inactive

These solved cases illustrate the format of a correct answer.
COc1ccc(C(O)(CCC(C)C)C(CN2CCOCC2)c2ccc(Cl)cc2)cc1 (centres undefined) ... N
O=C1c2cccc3cccc(c23)C(=O)N1CCCCCN1CCN(CCCCCOc2ccc(-c3nc4ccc(N5CCOCC5)cc4[nH]3)cc2)CC1 ... N
CSc1nc(NC2OC(COC(C)=O)C(OC(C)=O)C(OC(C)=O)C2OC(C)=O)c(N=CC=Nc2c(NC3OC(COC(C)=O)C(OC(C)=O)C(OC(C)=O)C3OC(C)=O)nc(SC)n(C)c2=O)c(=O)n1C (centres undefined) ... N
CSc1ccccc1C#C/C=C\C#Cc1ccccc1N ... N
CC(C)=CCc1cc(O)cc2c1OC(C=C(C)C)C1=C2C(=O)C2=C(C1=O)S(=O)(=O)CCN2 (centres undefined) ... N
CC(C)OC(=O)[C@H](C)NP(=O)(OC[C@H]1O[C@@H](n2ccc(=O)[nH]c2=O)[C@](C)(F)[C@@H]1O)Oc1ccccc1 (some centres undefined) ... N
O=C1CCC/C=C\C[C@H]2C=CC(=O)/C2=C/C[C@H](C/C=C\CC(F)(F)F)O1 ... Y
CN(C)CCC(=O)C(=Cc1ccc(O)cc1)C(=O)CCN(C)C ... N
CC1CCN(C(=O)OCc2nc3nc(Cl)nc(N4CCOCC4)c3[nH]2)CC1 ... N
O=C(Nc1ccc(Cl)c(C(F)(F)F)c1)c1ccc(NC2=C(Cl)C(=O)N(Cc3ccccc3)C2=O)cc1 ... N

Q) Check the results log: what was the call for `COC(=O)c1ccc2c(c1)/C(=C\c1cc(Br)c(O)c(Br)c1)C(=O)N2` ?
A) N

Q) What call does the record list for `O=C1c2cc3c(cc2-c2c1c1cc(Cl)c(Cl)cc1c(=O)n2C[C@H](O)CO)OCO3` ?
A) Y

Q) Short answer needed: outcome of this test for `NCCCn1c2c(c3ccc([N+](=O)[O-])cc3c1=O)C(=O)c1ccccc1-2` ?
A) Y

###

system: SK-MEL-5 melanoma; assay: NCI tumour cell line growth inhibition, 48 h; in the data active means GI50 below about 0.43 µM; inactive means the rest
Output constraint: value belongs to yes (1) (active), no (0) (inactive)

These recorded examples may help you get a feel for the data.
COC(=O)c1ccc(-c2c(C#N)[n+](=O)c3cc(Cl)c(Cl)cc3n2[O-])cc1 ... no (0)
O=C1c2cccc3cccc(c23)C(=O)N1CCCCCN1CCN(CCCCCOc2ccc(-c3nc4ccc(N5CCOCC5)cc4[nH]3)cc2)CC1 ... no (0)
C#Cc1nc(Nc2cc(C)[nH]n2)c2ccccc2n1 ... yes (1)
CSc1ccccc1C#C/C=C\C#Cc1ccccc1N ... no (0)

Continue with the next compound.
Q) How was Nc1ccn(C2OC(CO)C(O)C2O)c(=O)n1 (stereo not given) classified in this test?
A) no (0)

###

test system: MDA-MB-435; assay: NCI tumour cell line growth inhibition, 48 h; in the data active = GI50 below about 0.43 µM; inactive = the rest
Can you answer with just one of these options? yes (1) (active), no (0) (inactive)

Some solved entries appear below for comparison.
CC(C(=O)O)c1cccc(Oc2ccccc2)c1 (configuration not stated) ... no (0)
Cn1c(=O)c(Oc2ccc(F)cc2)cc2cnc(NC3CCOCC3)nc21 ... no (0)
C/C(=N\NC(=S)N1CCCCCC1)c1ccccn1 ... yes (1)

Q) In this assay, the call recorded for `COC(=O)c1ccc(-c2c(C#N)[n+](=O)c3cc(Cl)c(Cl)cc3n2[O-])cc1` was what?
A) no (0)

Q) For Cc1ccc2c(C3C(C#N)=C(N)Oc4cc5ccccc5cc43)cc(=O)oc2c1 (configuration not stated) , what call appears in the results of this test?
A) yes (1)

Q) Please let me know the test result on file for `O=C1c2cccc3cccc(c23)C(=O)N1CCCCCN1CCN(CCCCCOc2ccc(-c3nc4ccc(N5CCOCC5)cc4[nH]3)cc2)CC1` .
A) no (0)
